tested on: Staphylococcus aureus SA1199B; assay type: cell-based
Attribute: MIC

CCCCCCCC#Cc1ccc(CN[C@@]2(C)C[C@H](O[C@H]3[C@H](Oc4c5cc6cc4Oc4ccc(cc4Cl)[C@@H](O[C@H]4C[C@](C)(N)[C@@H](O)[C@H](C)O4)[C@@H]4NC(=O)[C@H](NC(=O)[C@@H]6NC(=O)[C@H](CC(N)=O)NC(=O)[C@H](NC(=O)[C@@H](CC(C)C)NC)[C@H](O)c6ccc(c(Cl)c6)O5)c5ccc(O)c(c5)-c5c(O)cc(O)cc5[C@@H](C(=O)O)NC4=O)O[C@H](CO)[C@@H](O)[C@@H]3O)O[C@@H](C)[C@@H]2O)cc1 = 32 mg/L
CC(C)CC(C(=O)NC1C(=O)NC(CC(N)=O)C(=O)NC2C(=O)NC3C(=O)NC(C(=O)NC(C(=O)O)c4cc(O)cc(O)c4-c4cc3ccc4O)C(OC3CC(C)(N)C(O)C(C)O3)c3ccc(c(Cl)c3)Oc3cc2cc(c3OC2OC(CO)C(O)C(O)C2OC2CC(C)(N)C(O)C(C)O2)Oc2ccc(cc2Cl)C1O)N(C)Cc1ccc(O)cc1 (stereo not drawn) = ≤ 0.06 mg/L

Ask: // fetch MIC; item: CNC(CC(C)C)C(=O)NC1C(=O)NC(CC(N)=O)C(=O)NC2C(=O)NC3C(=O)NC(C(=O)NC(C(=O)O)c4cc(O)cc(O)c4-c4cc3ccc4O)C(OC3CC(C)(N)C(O)C(C)O3)c3ccc(c(Cl)c3)Oc3cc2cc(c3OC2OC(CO)C(O)C(O)C2OC2CC(C)(NCc3ccc(OCCC4CCCCC4)cc3)C(O)C(C)O2)Oc2ccc(cc2Cl)C1O (stereo not drawn) ; system: Staphylococcus aureus SA1199B
Result: 2 mg/L

---

tested on: vancomycin-resistant enterococci; assay: broth micro-dilution, mean geometric MIC; assay type: cell-based, Enterococcus faecium and Enterococcus faecalis; details: enterococci, 24-hour incubation
Measured attribute: mean geometric MIC, Vancomycin Resistant Strains (µg/mL)
Reply with just the number (in µg/mL).

CNC(CC(C)C)C(=O)NC1C(=O)NC(CC(N)=O)C(=O)NC2C(=O)NC3C(=O)NC(C(=O)NC(C(=O)O)c4cc(O)cc(O)c4-c4cc3ccc4O)C(OC3CC(C)(N)C(O)C(C)O3)c3ccc(c(Cl)c3)Oc3cc2cc(c3OC2OC(CO)C(O)C(O)C2OC2CC(C)(NCc3ccc(-c4ccccc4C)cc3)C(O)C(C)O2)Oc2ccc(cc2Cl)C1O (stereo not drawn) [Compound 209] = 1.2
CNC(CC(C)C)C(=O)NC1C(=O)NC(CC(N)=O)C(=O)NC2C(=O)NC3C(=O)NC(C(=O)NC(C(=O)O)c4cc(O)cc(O)c4-c4cc3ccc4O)C(OC3CC(C)(N)C(O)C(C)O3)c3ccc(c(Cl)c3)Oc3cc2cc(c3OC2OC(CO)C(O)C(O)C2OC2CC(C)(NCCc3ccc(OCc4ccccc4)cc3)C(O)C(C)O2)Oc2ccc(cc2Cl)C1O (stereo not drawn) [Compound 68] = 6.7

Below: the item to evaluate.
Ask: Find the measured mean geometric MIC, Vancomycin Resistant Strains of CNC(CC(C)C)C(=O)NC1C(=O)NC(CC(N)=O)C(=O)NC2C(=O)NC3C(=O)NC(C(=O)NC(C(=O)O)c4cc(O)cc(O)c4-c4cc3ccc4O)C(OC3CC(C)(NCc4ccc5c(c4)Cc4ccccc4-5)C(O)C(C)O3)c3ccc(c(Cl)c3)Oc3cc2cc(c3OC2OC(CO)C(O)C(O)C2OC2CC(C)(NCc3ccc4c(c3)Cc3ccccc3-4)C(O)C(C)O2)Oc2ccc(cc2Cl)C1O (stereo not drawn) [Compound 279] with vancomycin-resistant enterococci as test system.
Result: 2.4

---

test system: vancomycin-resistant enterococci; experiment: broth micro-dilution, mean geometric MIC; assay type: cell-based, Enterococcus faecium and Enterococcus faecalis; conditions: enterococci, 24-hour incubation
Measured attribute: mean geometric MIC, Vancomycin Resistant Strains (µg/mL)
Write down the numeric answer in µg/mL and omit the unit.

CNC(CC(C)C)C(=O)NC1C(=O)NC(CC(N)=O)C(=O)NC2C(=O)NC3C(=O)NC(C(=O)NC(C(=O)O)c4cc(O)cc(O)c4-c4cc3ccc4O)C(OC3CC(C)(N)C(O)C(C)O3)c3ccc(c(Cl)c3)Oc3cc2cc(c3OC2OC(CO)C(O)C(O)C2OC2CC(C)(NCc3cccc4c3OCO4)C(O)C(C)O2)Oc2ccc(cc2Cl)C1O (stereo not drawn) = 5.7

Ask: Identify the reported mean geometric MIC, Vancomycin Resistant Strains for the following entry. CNC(CC(C)C)C(=O)NC1C(=O)NC(CC(N)=O)C(=O)NC2C(=O)NC3C(=O)NC(C(=O)NC(C(=O)O)c4cc(O)cc(O)c4-c4cc3ccc4O)C(OC3CC(C)(N)C(O)C(C)O3)c3ccc(c(Cl)c3)Oc3cc2cc(c3OC2OC(CO)C(O)C(O)C2OC2CC(C)(NCC3=CCC(C(C)C)CC3)C(O)C(C)O2)Oc2ccc(cc2Cl)C1O (stereo not drawn)
Result: 9.5

Ask: Give the measured mean geometric MIC, Vancomycin Resistant Strains for CC(C)CC(C(=O)NC1C(=O)NC(CC(N)=O)C(=O)NC2C(=O)NC3C(=O)NC(C(=O)NC(C(=O)O)c4cc(O)cc(O)c4-c4cc3ccc4O)C(OC3CC(C)(N)C(O)C(C)O3)c3ccc(c(Cl)c3)Oc3cc2cc(c3OC2OC(CO)C(O)C(O)C2OC2CC(C)(NCc3ccc(-c4ccccc4)cc3)C(O)C(C)O2)Oc2ccc(cc2Cl)C1O)N(C)Cc1ccc(-c2ccccc2)cc1 (stereo not drawn)
Result: 2

---

system: Leuconostoc lactis; experiment: agar dilution MIC, lactic acid bacteria; format: cell-based; conditions: Leuconostoc lactis (mean of 2), brain-heart infusion agar
Measured attribute: MIC (µg/mL)
Provide the reading as a plain figure in µg/mL.

Guide cases for MIC, answers given:
CNC(CC(C)C)C(=O)NC1C(=O)NC(CC(N)=O)C(=O)NC2C(=O)NC3C(=O)NC(C(=O)NC(C(=O)O)c4cc(O)cc(O)c4-c4cc3ccc4O)C(OC3CC(C)(N)C(O)C(C)O3)c3ccc(c(Cl)c3)Oc3cc2cc(c3OC2OC(CO)C(O)C(O)C2OC2CC(C)(NCc3ccc4ccccc4c3)C(O)C(C)O2)Oc2ccc(cc2Cl)C1O (stereo not drawn) [Compound 1] = 23
CNC(CC(C)C)C(=O)NC1C(=O)NC(CC(N)=O)C(=O)NC2C(=O)NC3C(=O)NC(C(=O)NC(C(=O)O)c4cc(O)cc(O)c4-c4cc3ccc4O)C(OC3CC(C)(N)C(O)C(C)O3)c3ccc(c(Cl)c3)Oc3cc2cc(c3OC2OC(CO)C(O)C(O)C2OC2CC(C)(NCc3ccc(OCc4ccccc4)cc3)C(O)C(C)O2)Oc2ccc(cc2Cl)C1O (stereo not drawn) [Compound 5] = 8.0

In the following, a different compound is considered.
Ask: Item CNC(CC(C)C)C(=O)NC1C(=O)NC(CC(N)=O)C(=O)NC2C(=O)NC3C(=O)NC(C(=O)NC(C(=O)O)c4cc(O)cc(O)c4-c4cc3ccc4O)C(OC3CC(C)(N)C(O)C(C)O3)c3ccc(c(Cl)c3)Oc3cc2cc(c3OC2OC(CO)C(O)C(O)C2OC2CC(C)(NCc3ccc(Oc4ccccc4)cc3)C(O)C(C)O2)Oc2ccc(cc2Cl)C1O (stereo not drawn) [Compound 4, p-phenoxybenzyl·A82846B] : provide MIC
Result: 16

---

test system: Escherichia coli EC14; assay: broth micro-dilution MIC; type: cell-based
Measured attribute: MIC

CNC(CC(C)C)C(=O)NC1C(=O)NC(CC(N)=O)C(=O)NC2C(=O)NC3C(=O)NC(C(=O)NC(C(=O)O)c4cc(O)cc(O)c4-c4cc3ccc4O)C(OC3CC(C)(N)C(O)C(C)O3)c3ccc(c(Cl)c3)Oc3cc2cc(c3OC2OC(CO)C(O)C(O)C2OC2CC(C)(NCc3ccc([N+](=O)[O-])cc3)C(O)C(C)O2)Oc2ccc(cc2Cl)C1O (centres unmarked) [Compound 78] = > 64 µg/mL

Moving on to the next compound.
Ask: State its MIC: CN[C@H](CC(C)C)C(=O)N[C@H]1C(=O)N[C@@H](CC(N)=O)C(=O)N[C@H]2C(=O)N[C@H]3C(=O)N[C@H](C(=O)N[C@H](C(=O)O)c4cc(O)cc(O)c4-c4cc3ccc4O)[C@H](O)c3ccc(c(Cl)c3)Oc3cc2cc(c3O[C@@H]2O[C@H](CO)[C@@H](O)[C@H](O)[C@H]2O[C@H]2C[C@](C)(N)[C@H](O)[C@H](C)O2)Oc2ccc(cc2Cl)[C@H]1O [vancomycin, reference compound]
Result: > 64 µg/mL

---

system: Haemophilus influenzae RD; test: broth micro-dilution MIC; assay type: cell-based; details: Haemophilus influenzae RD
Measured attribute: MIC (µg/mL)
Write the answer as a number in µg/mL, unit excluded.

CNC(CC(C)C)C(=O)NC1C(=O)NC(CC(N)=O)C(=O)NC2C(=O)NC3C(=O)NC(C(=O)NC(C(=O)O)c4cc(O)cc(O)c4-c4cc3ccc4O)C(OC3CC(C)(N)C(O)C(C)O3)c3ccc(c(Cl)c3)Oc3cc2cc(c3OC2OC(CO)C(O)C(O)C2OC2CC(C)(NCc3ccc(OCCOCCCl)cc3)C(O)C(C)O2)Oc2ccc(cc2Cl)C1O (stereo not drawn) [Compound 75] = 2

Now let's try a different one.
Ask: Quickly give me recorded MIC for CC#CCCCCCCCCCCNC1(C)CC(OC2C(Oc3c4cc5cc3Oc3ccc(cc3Cl)C(OC3CC(C)(N)C(O)C(C)O3)C3NC(=O)C(NC(=O)C5NC(=O)C(CC(N)=O)NC(=O)C(NC(=O)C(CC(C)C)NC)C(O)c5ccc(c(Cl)c5)O4)c4ccc(O)c(c4)-c4c(O)cc(O)cc4C(C(=O)O)NC3=O)OC(CO)C(O)C2O)OC(C)C1O (stereo not drawn) [Compound 199]
Result: 32
